Data provenance is PubChem BioAssay (NCI).

Test system: HCT-116 colon
Assay: NCI-60 one-dose screen, 48 h
Details: 10 µM unless noted
This is part of a sample that, as a whole, favours compounds with a hit. Of some 83,000 tested, about 20% had one in any assay. The source made the active and inactive calls. The calls were made as follows: active = growth percent below 10; inactive = the rest.
Labels: active, inactive

1) CC(C)(C)OC(=O)N1C/C(=C\c2ccccc2)C(=O)/C(=C/c2ccccc2)C1; inactive
2) CCCCCCCCCCC(C[N+](C)(C)C/C=C/c1ccccc1)C(O)c1ccccc1 (stereo not given); active
3) CCc1ccc(C(=Nc2ccc(N(C)C(=O)CN3CCN(C)CC3)cc2)c2c(O)[nH]c3ccc(C(=O)OC)cc23)cc1; active
4) O=C(/C=C1\C(=O)N(Cc2ccc([N+](=O)[O-])cc2)c2ccccc21)c1ccc(OCCN2CCCCC2)cc1; active
5) CCOC(=O)NC1=NCC(C)(C)S1; inactive
6) COc1cc(-c2nn(-c3ccc(NC(=O)c4ccc(Cl)c(Cl)c4)cc3)cc2-c2ccncc2)ccc1Cl; inactive
7) COc1ccc(-c2cn3ccnc3c(-c3ccc4ncn(C5CCCCC5)c4c3)n2)cc1; active
8) CCN(CC)c1ccc2nc3ccc(N=Nc4ccc(O)cc4)cc3[n+](-c3ccccc3)c2c1; active
9) Oc1ccc([S+](c2ccc(O)cc2)c2ccc(O)cc2)cc1; inactive
10) Cc1ccc(C(=O)Nc2ccc(CN3CCN(C)CC3)c(C(F)(F)F)c2)cc1C#Cc1cnc(N)c2ccc(C#N)cc12; inactive
11) COc1cc(-c2nn(-c3ccc(NC(=O)c4ccc(Cl)c(C(F)(F)F)c4)cc3)cc2-c2ccncc2)ccc1Cl; active
12) Nc1nc2c(c3cnccc13)C(c1cccc(Br)c1)Cc1cnccc1-2 (stereo not given); active
13) COc1ccc(C(=O)N2N=C(c3ccc(Br)cc3)CC2c2cn(-c3ccccc3)nc2-c2ccccc2)cc1 (stereo not given); active
14) COc1cc(/C(=C2/O[C@@H]([C@H]3COC(C)(C)O3)[C@H]3OC(C)(C)O[C@@H]23)c2ccc3c(c2)OCO3)cc(OC)c1OC; active
15) CCCCCCCCC1OC1CCCCCCCC(=O)O (stereo not given); inactive
16) N=C(c1ccccc1)N(Cc1ccccc1)Cc1ccccc1; inactive
17) C=CCN(C)C; inactive
18) Brc1c(-c2ccncc2)nc2n1CCS2; inactive
19) COc1cc2ncnc(-n3ncc4cc(NC(=O)Nc5ccc(Cl)c(Cl)c5)ccc43)c2cc1OC; inactive
20) NC(N)=Nc1ccc(/C=C2\C=Cc3ccccc32)cc1; inactive

----------
System: NCI-H522 lung
Assay: NCI-60 one-dose screen, 48 h (100 = growth as untreated, 0 = no growth, -100 = all killed)
Conditions: 10 µM
Compounds without any hit were thinned out: in the full panel of roughly 83,000, 20% have a hit.
Quick reference: growth of the listed items.
property: growth (%)

1. C/C(=N\Nc1ccc(Cl)cn1)c1ccccn1; 6.6
2. CCCC(C)c1cc(Cc2cc(Cl)cc(Cl)c2O)c(O)c(Cc2cc(Cl)cc(Cl)c2O)c1 (stereo unspecified); 4.06
3. CCCCCSc1ccc2nc(NC(=O)OCCC)sc2c1; 29.4
4. COc1cc2ncnc(-n3ncc4cc(NC(=O)Nc5ccc(Cl)c(Cl)c5)ccc43)c2cc1OC; 1.38
5. CCOP1(=O)CC(C)=C(Cl)C(P(=O)(O)O)C1 (stereo unspecified); 89.7
6. NC(N)=N/N=C/c1cccc(Br)c1; 100
7. O=C(NCCCl)Nc1nccnc1OCc1ccc(F)cc1; 77.6
8. CC(=O)OCC(=O)[C@@]1(O)[C@H](C)C[C@H]2[C@@H]3C=C(C)C4=Cc5c(cnn5-c5ccc(F)cc5)C[C@]4(C)[C@H]3[C@@H](O)C[C@@]21C; -23.7
9. CCOc1ccc2nc3ccc(Cl)cc3nc2c1; 76.9
10. O=C(N/N=C\c1ccc(-c2ccc(Br)cc2)o1)c1cc2oc(-c3cccc(C(F)(F)F)c3)cc2[nH]1; 122
11. CCCC(CCC)Oc1ccc(CCCC2=C(O)c3ccccc3C(=O)C2=O)cc1; 30.2
12. O=C1/C(=N\c2cc(=O)[nH]n2S(=O)(=O)c2ccccc2)Nc2ccccc21; 96.7
13. Cc1nn(-c2ccccc2)c(N)c1N=C1NC(=O)/C(=C/c2ccc(Cl)cc2)S1; 87.1
14. CCC(C)C1NC(=O)C(CCCCN)NC(=O)C(CCCCN)NC(=O)C(CC(C)C)NC(=O)C(CCCCN)NC(=O)C(C(C)CC)NC(=O)C(C(C)C)NC(=O)C(C(C)CC)NC(=O)C(CCCCN)NC(=O)C(CCCCN)NC(=O)C(C)NC(=O)C(CCCCN)NC(=O)C(CC(C)C)NC1=O (stereo unspecified); 9.29
15. COc1cc(OC)c2c(=O)cc(-c3ccccc3)oc2c1; 82.8
16. COC1=CC(c2ccc[nH]2)=N/C1=C\c1[nH]c(C)c(C(=O)CCCCC(=O)NC(C)(C)C)c1C; -28.1
17. COc1ccc(C2=C/C(=C\c3ccc(Cl)cc3)C(=O)NN2C(=S)NN)cc1; 83.9
18. Brc1ccc(-c2nc3ccccc3s2)cc1; 93.8
19. Cc1ccc(CC(=O)O)c(C)c1; 85
20. Cc1ccc(C(=O)Nc2ccc(CN3CCN(C)CC3)c(C(F)(F)F)c2)cc1C#Cc1cncc2ncccc12; 2.81
21. O=C(O)/C(Br)=C/c1c[nH]c2ccc(Br)cc12; 110

----------
Tested on: SF-295 CNS
Experiment: NCI-60 one-dose screen, 48 h
Details: 10 µM unless noted
This is part of a sample that, as a whole, favours compounds with a hit. Of some 83,000 tested, about 20% had one in any assay. Calls of active or inactive are those of the source. How the source made its calls: active means growth percent below 10; inactive means the rest.
Labels: t for active, f for inactive

1. COC(=O)/C=C/c1cc(O)c2oc(-c3ccc(O)c(O)c3)c(C(=O)OC)c2c1; t
2. COc1cccc(Cn2cc3c(c2)-c2oncc2CC3)c1; t
3. CCCCCCCCCCC1OC(C)CC(C)O1 (stereo unspecified); f
4. S=C(N/N=C/c1cc(Cl)cc(Cl)c1)NC12CC3CC(CC(C3)C1)C2; f
5. CC(C)OC(=O)c1ccc2n1CCCc1cnc(Nc3ccccc3)nc1-2; f
6. N#Cc1ccc(OCc2nc(N)nc(N)c2-c2ccc(Cl)c(Cl)c2)cc1; t

----------
Test system: OVCAR-5 ovarian
Experiment: NCI-60 one-dose screen, 48 h
Settings: 10 µM unless noted
Description: Growth inhibition of the OVCAR-5 human tumor cell line is measured as a screen for anti-cancer activity. Cells are grown in 96 well plates and exposed to the test compound for 48 hours. Compounds are tested at a single concentration, which is 10^-5 M for most compounds. The reported endpoint is percent growth (GI% or GIPRCNT), where numbers from 0 - 100% represent growth inhibition, and numbers from -100% - 0 represent cell death. For example, a value of 40 represents 60% growth inhibition. […]
About 83,000 compounds went through this panel and 20% of them were active in at least one assay; those are over-represented in the sample as a whole. Active and inactive are the calls of the source. How the source made its calls: active means growth percent below 10; inactive means the rest.
Labels: active, inactive

1. C=C1CCC2C3(C)COC(c4ccccc4)OC3CCC2(C)C1C/C=C1/C(=O)OCC1O (configuration not stated); inactive
2. CCS(=O)(=O)N[C@@H]1O[C@H](COC(C)=O)C(OC(C)=O)[C@H](OC(C)=O)C1OC(C)=O (some centres not stated); inactive
3. Nc1cc2c(cc1Br)[nH]c(=O)c1ccccc12; inactive
4. COc1ccc(C(=O)N2N=C(c3ccc(Br)cc3)CC2c2cn(-c3ccccc3)nc2-c2ccccc2)cc1 (configuration not stated); inactive
5. O=C(CCC(=O)N(CCO)CCO)N(CCO)CCO; inactive
6. COc1cc(NC(C)CCCN)c2nccc(C)c2c1OC (configuration not stated); inactive
7. CCCCCC(=C/c1ccccc1)/C=N/N=C(N)N; inactive
8. CCS(=O)(=O)OCCO[C@H]1Cc2cc3ccc(=O)oc3cc2OC1(C)C; inactive
9. CCc1c(C)c2ccc(OCC(=O)N=Nc3c(O)[nH]c4ccccc34)c(C)c2oc1=O; inactive
10. Cc1nc(NC(=O)NC2CCCCC2)sc1C(=O)NN; inactive
11. O=C(Nc1cccc(Cn2c(=O)[nH]c3ccc(Oc4ncccn4)cc3c2=O)c1)c1cccc(F)c1; inactive
12. CSCc1ncc(-c2ccc(C(F)(F)F)cc2)c(NC2CCCCCC2)n1; inactive
13. O=C(NC(=S)NNC(=S)NNc1ccccc1)c1ccccc1; inactive
14. NCCCOc1cc2ccccc2cc1C(=O)Nc1ccc(Cl)cc1OC(=O)c1cc2ccccc2cc1OCCCN; active
15. COC(=O)c1ccc2[nH]c(O)c(C(=Nc3ccc(N(C)C(=O)CN4CCN(C)CC4)cc3)c3ccc4c(c3)OCO4)c2c1; inactive
16. COc1cc(CCNc2cnc3cc(N)cc(N)c3n2)cc(OC)c1; inactive
17. C#CCCCCCCC[C@@H]1OC(=O)[C@H]([C@@H](C)CC)NC(=O)[C@@H]([C@@H](C)CC)NC(=O)CC(=O)[C@@H]1C; inactive
18. COc1ccc(-c2nc(Nc3nc4ccccc4[nH]3)nc(N)c2C#N)cc1; inactive
19. O=C(O)CS(=O)c1ccc(Cl)cc1 (configuration not stated); inactive
20. NNC(=O)CNc1ccc2ccccc2c1; inactive
21. COc1cc(OC)c2c(=O)cc(-c3ccccc3)oc2c1; inactive
22. COc1ccc(CNCCCN2C(=O)c3ccc4c5c(ccc(c35)C2=O)C(=O)N(CCCNCc2ccc(OC)c(OC)c2OC)C4=O)c(OC)c1OC; active
23. CCCNC(=O)Oc1ccc(/C(=C(/CC)Cc2ccccc2)c2ccc(OCCN(CC)CC)cc2)cc1; inactive
24. COc1cc(-c2nn(-c3ccc(NC(=O)c4ccc(Cl)c(C(F)(F)F)c4)cc3)cc2-c2ccncc2)ccc1Cl; inactive
25. O=C(N/N=C\c1ccc(Cl)cc1)C(=O)N/N=C\c1ccc(Cl)cc1; inactive
26. CC(C)OCC1CO1 (configuration not stated); inactive
27. O=C(CCCC(=O)Nc1ccc(Cn2nnc3cc(Cl)c(Cl)cc32)cc1)Nc1ccc(CN2N=NC3C=C(Cl)C(Cl)=CC32)cc1 (configuration not stated); inactive
28. O=S(=O)(O)c1ccc2c(c1)Sc1cc(S(=O)(=O)O)ccc1O2; inactive
29. CCCCCSc1ccc2nc(NC(=O)OCC)sc2c1; inactive
30. Nc1cc(N)c2nc(NCCc3ccc(Cl)c(Cl)c3)cnc2c1; inactive
31. COc1ccc(-c2nc(SCC(C)C)nc(Nc3ccccc3)c2C#N)cc1; inactive
32. Cn1c2ccccc2c2ccccc21; inactive
33. CCCCCCCCCCCCCCCCCC1=NCCN1CCNC(C)=O; inactive
34. O=C(Nc1cccc2[nH]c(C(F)(F)F)nc12)c1ccc(F)cc1; inactive
35. CCN(CC)CCOC(=O)c1cccnc1; inactive
36. COc1ccc2c(c1)/C(=C/c1c(-c3cc(OC)c(OC)c(OC)c3)nc3sccn13)C(=O)N2; inactive
37. COc1ccc(Cn2cc3c(c2)-c2oncc2CC3)cc1OC; inactive
38. COC1NC(Cl)=C(C#N)C(C#N)(C#N)C1(C)C (configuration not stated); inactive
39. COc1ccc(Cn2cc3c(c2-c2ccc(OC)cc2)CCc2cnoc2-3)cc1; inactive
40. Cc1nc2c(nnn2-c2ccccc2)c2nc(-c3ccccc3)oc(=O)c12; inactive
41. COC(=O)[C@H](Cc1cn(C)cn1)NC(=O)[C@@H](NC(=O)Nc1cc(C(F)(F)F)cc(C(F)(F)F)c1)C(C)(C)C; inactive
42. CCCCCCCCc1ccc(CCC(N)(CO)CO)cc1; inactive
